All values here come from patent US5886051A.

System: N-methyl-D-aspartate receptor complex
protocol_description: [3H]MK-801 binding to rat cortical membranes with excess L-glutamate and glycine, modulated by polyamines
protocol_conditions: 10 μM tetraamine; 100 μM L-Glu, 100 μM Gly, 2 nM [3H]MK-801; mean ± SD
Note to self: values exactly at 60% are met. So [3H]MK-801 binding relative to "100% Control" at or above 60% is met, below is not met.

Consider the following illustrative entries.
compound_string	class_name
CC(C)(C)NCCCCNCCCCNCCCCNC(C)(C)C	not met
CCNCCCCNCCCCNCCCCNCC	not met
CNCCCNCCCNCCCNC	met

### Prompt Please indicate if the recorded [3H]MK-801 binding relative to "100% Control" for `CCNCCCNCCCNCCCNCC` meets or exceeds 60%.
### Response met

### Prompt Please indicate if the recorded [3H]MK-801 binding relative to "100% Control" for `CNCCCCNCCCCNCCCCNC` meets or exceeds 60%.
### Response met
